# Lookup of reported pEC50 keyed by entry
Experiment notes: CPE Assay: Primary cytopathic effect (CPE) reduction assay. Four-concentration CPE inhibition assays are performed. Confluent or near-confluent cell culture monolayers in 96-well disposable microplates are prepared.
pEC50: −log10 of the molar value.

{"columns": ["Compound", "Qualifier operator", "pEC50"],
 "data": [
  ["O=c1nc(NO)cc[nH]1 [N4-hydroxycytosine]", "<", 4.11],
  ["CC(C)(C)C(=O)OCOP(=O)(OCOC(=O)C(C)(C)C)OC[C@@]1(N=[N+]=[N-])O[C@@H](n2ccc(=O)[nH]c2=O)C(O)[C@H]1O (some centres not stated)", "=", 4.25],
  ["CCCCCCCCCCCCCCCCOCCCOP(=O)(O)OC[C@H]1O[C@@H](n2ccc(NO)nc2=O)C(O)[C@H]1O (some centres not stated)", "=", 4.46],
  ["O=c1ccn([C@@H]2O[C@H](CO)[C@H](O)C23CC3(F)F)c(=O)[nH]1 (some centres not stated)", "<", 4.11],
  ["CNC(=O)ONc1ccn([C@@H]2O[C@H](CO)[C@H](O)C2O)c(=O)n1 (some centres not stated)", "=", 4.49],
  ["CC1(O)[C@H]2OP(=O)(Oc3ccccc3)OC[C@H]2O[C@H]1n1ccc(=O)[nH]c1=O (some centres not stated)", "<", 4.11],
  ["CCCCCCCNC(=O)ONc1ccn([C@H]2O[C@H](CO)[C@H](O)C2O)c(=O)n1 (some centres not stated)", "=", 4.42],
  ["NNc1ccn([C@@H]2O[C@H](CO)[C@H](O)C2O)c(=O)n1 (some centres not stated)", "<", 4.11],
  ["CONc1ccn([C@@H]2O[C@H](CO)[C@H](O)C2(C)O)c(=O)n1 (some centres not stated)", "<", 4.12],
  ["CC(C)(C)C(=O)OCOP(=O)(OCOC(=O)C(C)(C)C)OC[C@H]1O[C@@H](n2ccc(=O)[nH]c2=O)C(C)(F)[C@H]1O (some centres not stated)", "=", 4.24],
  ["CCOP(=O)(OCC)OC[C@H]1O[C@@H](n2ccc(NO)nc2=O)C(O)[C@H]1O (some centres not stated)", "<", 4.11],
  ["O=c1nc(NO)ccn1[C@@H]1O[C@H](COP2(=O)OCc3ccccc3O2)[C@H](O)C1O (some centres not stated)", "=", 4.97]
]}

---

Experiment notes: CPE Assay: Primary cytopathic effect (CPE) reduction assay. Four-concentration CPE inhibition assays are performed. Confluent or near-confluent cell culture monolayers in 96-well disposable microplates are prepared.
hey, just use criterion met if measured EC50 is less than 60 µM, otherwise criterion not met

{"columns": ["Compound", "Label class"],
 "data": [
  ["CC1(F)[C@@H](O)[C@@H](CO)O[C@H]1n1ccc(NO)nc1=O (some centres undefined)", "criterion not met"],
  ["CCCCCCCNC(=O)OC[C@H]1O[C@@H](n2ccc(NO)nc2=O)C(O)[C@H]1O (some centres undefined)", "criterion not met"],
  ["O=c1nc(NO)ccn1[C@@H]1O[C@H](CO)[C@H](O)C1F (some centres undefined)", "criterion not met"],
  ["CCCCCCCCC(=O)OC[C@H]1O[C@@H](n2ccc(NO)nc2=O)C(O)[C@H]1O (some centres undefined)", "criterion met"],
  ["CN(C)C(=O)ONc1ccn([C@@H]2O[C@H](CO)[C@H](O)C2O)c(=O)n1 (some centres undefined)", "criterion met"],
  ["CCCCCCCNC(=O)ONc1ccn([C@@H]2O[C@H](CO)[C@H](O)C2O)c(=O)n1 (some centres undefined)", "criterion met"],
  ["CCCCCCCCCCCCCCCCNC(=O)ONc1ccn([C@@H]2O[C@H](CO)[C@H](O)C2O)c(=O)n1 (some centres undefined)", "criterion not met"],
  ["CC1(O)[C@@H](O)[C@@H](CO)O[C@H]1n1ccc(NO)nc1=O (some centres undefined)", "criterion not met"],
  ["C#CC1(O)[C@@H](O)[C@@H](COP(=O)(OCOC(=O)C(C)(C)C)OCOC(=O)C(C)(C)C)O[C@H]1n1ccc(=O)[nH]c1=O (some centres undefined)", "criterion not met"]
]}
